TEST TARGET: Cytochrome P450 1A2 (Homo sapiens) (UniProt P05177)
Sequence (P05177 whole entry, looked up): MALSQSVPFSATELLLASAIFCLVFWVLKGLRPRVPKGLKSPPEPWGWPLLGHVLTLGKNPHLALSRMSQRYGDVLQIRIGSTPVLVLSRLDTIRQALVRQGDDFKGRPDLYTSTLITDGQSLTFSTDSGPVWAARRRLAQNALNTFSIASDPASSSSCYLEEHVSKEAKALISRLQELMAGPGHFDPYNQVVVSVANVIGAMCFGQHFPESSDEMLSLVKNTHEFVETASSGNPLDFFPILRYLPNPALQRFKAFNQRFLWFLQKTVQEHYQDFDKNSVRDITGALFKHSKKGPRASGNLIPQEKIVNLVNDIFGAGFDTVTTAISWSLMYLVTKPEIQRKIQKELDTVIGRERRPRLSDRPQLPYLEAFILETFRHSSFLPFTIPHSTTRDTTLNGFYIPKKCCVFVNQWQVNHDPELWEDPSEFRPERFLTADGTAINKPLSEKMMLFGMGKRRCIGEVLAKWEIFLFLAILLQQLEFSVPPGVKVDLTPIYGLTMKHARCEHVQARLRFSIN
ASSAY DETAILS: Cytochrome P450 Family 1 Subfamily A Member 2 (CYP1A2) small molecule antagonists: luciferase reporter qHTS assay (AID 1671199); note: nearly all actives have a fitted effect of over 50% in size
EXPERIMENTAL SETUP: P450-Glo CYP1A2 enzyme, luciferin luminescence, 1 h; series mostly up to 115 µM
Results filed as inconclusive are left out. Calls of active or inactive are those of the source. Calls come from the whole dose curve; as a rule, active = well fitted inhibition curve with a large enough effect in the repeat runs; inconclusive = weak or mixed curves; inactive = no such curve, though single readings can be large or run the other way.
Would you mind answering with one of these outcomes? TRUE (active), FALSE (inactive)

Examples from the recorded data:
IN: Which outcome was assigned to CCCCCCCCCCCCS in this test?
OUT: FALSE

IN: Which outcome was assigned to O=C(O)c1cc(=O)c2c(OCC(O)COc3cccc4oc(C(=O)O)cc(=O)c34)cccc2o1 in this test?
OUT: FALSE

IN: Which outcome was assigned to O=S1(=O)CC=CC1 in this test?
OUT: FALSE

IN: Which outcome was assigned to Nc1cc([N+](=O)[O-])ccc1O in this test?
OUT: TRUE

IN: Which outcome was assigned to CCCC(C)=O in this test?
OUT: FALSE

IN: Which outcome was assigned to CC(=O)Nc1cccc(O)c1 in this test?
OUT: FALSE

IN: Which outcome was assigned to C/C=C1/CC2C=CC1C2 (stereo not drawn) in this test?
OUT: FALSE

Now for a further molecule.
IN: Which outcome was assigned to O=C(O)CCCCCCCCCCC(=O)O in this test?
OUT: FALSE

----------
TEST TARGET: Androgen receptor (Homo sapiens) (UniProt P10275)
Sequence (P10275 whole entry, looked up): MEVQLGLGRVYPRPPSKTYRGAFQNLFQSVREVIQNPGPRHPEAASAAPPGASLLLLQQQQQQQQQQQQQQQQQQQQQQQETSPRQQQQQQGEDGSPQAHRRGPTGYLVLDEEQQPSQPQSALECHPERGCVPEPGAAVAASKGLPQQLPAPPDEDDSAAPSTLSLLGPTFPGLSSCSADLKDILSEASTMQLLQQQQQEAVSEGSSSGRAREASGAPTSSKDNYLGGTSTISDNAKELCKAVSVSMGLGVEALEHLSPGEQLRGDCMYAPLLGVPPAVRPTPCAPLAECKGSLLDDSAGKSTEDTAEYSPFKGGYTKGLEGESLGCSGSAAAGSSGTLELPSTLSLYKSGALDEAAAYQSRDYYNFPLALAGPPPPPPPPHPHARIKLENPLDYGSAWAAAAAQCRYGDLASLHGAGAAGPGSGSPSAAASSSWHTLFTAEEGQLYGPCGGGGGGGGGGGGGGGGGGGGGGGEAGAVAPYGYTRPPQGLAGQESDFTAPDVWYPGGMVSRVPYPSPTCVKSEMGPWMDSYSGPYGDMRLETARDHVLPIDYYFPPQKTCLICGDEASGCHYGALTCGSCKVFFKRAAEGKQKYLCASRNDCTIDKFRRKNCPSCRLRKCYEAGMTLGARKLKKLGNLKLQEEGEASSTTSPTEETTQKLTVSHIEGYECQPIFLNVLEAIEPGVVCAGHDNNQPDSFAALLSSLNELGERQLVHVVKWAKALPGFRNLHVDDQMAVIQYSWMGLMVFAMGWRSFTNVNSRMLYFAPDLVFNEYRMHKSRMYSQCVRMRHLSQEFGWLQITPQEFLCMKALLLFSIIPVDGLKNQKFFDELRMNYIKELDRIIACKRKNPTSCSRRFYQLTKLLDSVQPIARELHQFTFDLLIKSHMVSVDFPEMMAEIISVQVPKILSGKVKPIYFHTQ
ASSAY DETAILS: qHTS assay to identify small molecule antagonists of the androgen receptor (AR) signaling pathway using the MDA cell line in the presence of 0.5 nM R1881 (AID 1259243); note: nearly all actives have a fitted effect of over 50% in size
EXPERIMENTAL SETUP: MDA-kb2 MMTV-luciferase, R1881 0.5 nM, 16 h; series mostly up to 92.4 µM
Inconclusive results are not listed. Activity calls are given as the source filed them. Calls follow the shape of the dose curve; as a rule, active = well fitted inhibition curve with a large enough effect in the repeat runs; inconclusive = weak or mixed curves; inactive = no such curve, though single readings can be large or run the other way.
Would you mind answering with one of these outcomes? active, inactive

IN: Which outcome was assigned to c1ccc2c(c1)ccc1ccccc12 in this test?
OUT: active

IN: Which outcome was assigned to CC(c1cc2ccccc2s1)N(O)C(N)=O (centres undefined) in this test?
OUT: inactive

IN: Which outcome was assigned to OCCOCCOCCO in this test?
OUT: inactive

IN: Which outcome was assigned to C[Si](O[Si](C)(C)C)O[Si](C)(C)C in this test?
OUT: inactive

IN: Which outcome was assigned to CC1CCC(C(C)C)C(O)C1 (centres undefined) in this test?
OUT: inactive

Next:
IN: Which outcome was assigned to O=C(O)c1ccccc1C(c1ccc(O)cc1)c1ccc(O)cc1 in this test?
OUT: inactive

IN: Which outcome was assigned to C[C@H]1C[C@@H]2[C@H]([C@@H](O)C[C@@]3(C)[C@H]2CC[C@]3(O)C(=O)CO)[C@@]2(C)C=CC(=O)C=C12 in this test?
OUT: inactive

IN: Which outcome was assigned to FC(F)(F)c1ccc(Cl)c(Cl)c1 in this test?
OUT: inactive

IN: Which outcome was assigned to Nc1cc([N+](=O)[O-])ccc1O in this test?
OUT: inactive

----------
TEST TARGET: Nuclear receptor ROR-gamma (Homo sapiens)
ASSAY DETAILS: qHTS assay to identify small molecule antagonists of the retinoid-related orphan receptor gamma (ROR-gamma) signaling pathway (AID 1159521;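 note: CHO cells with doxycycline inducible ROR-gamma driving an RORE luciferase reporter; top concentration of the series differs between compounds; nearly all actives have a fitted effect of over 50% in size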)
EXPERIMENTAL SETUP: Tet-on RORgamma CHO cells, RORE-luciferase, 16 h; series mostly up to 92.4 µM
Inconclusive results are not listed. Activity calls are given as the source filed them. Calls follow the shape of the dose curve; as a rule, active = well fitted inhibition curve with a large enough effect in the repeat runs; inconclusive = weak or mixed curves, or effect the other way; inactive = no such curve, though single readings can be large or run the other way.
EXPERIMENTAL ENDPOINT: outcome

The examples below pair each entry with its known result.
The compound listed as Cc1cccc(O)c1 has a reported outcome of inactive

The compound listed as CCN(CC)c1ccc(C(=O)c2ccccc2C(=O)O)c(O)c1 has a reported outcome of inactive

The compound listed as CC(O)COCC(C)O (centres undefined) has a reported outcome of inactive

The compound listed as NNc1nncc2ccccc12 has a reported outcome of inactive

The compound listed as O=C(CC(C(=O)OC1CCCCC1)S(=O)(=O)O)OC1CCCCC1 (centres undefined) has a reported outcome of inactive

The compound listed as CN(C)CCCN has a reported outcome of inactive

The compound listed as CC1CCC(C(C)C)C(O)C1 (centres undefined) has a reported outcome of inactive

The compound listed as CCCCCCCCCCCCc1ccccc1 has a reported outcome of inactive

Next:
The compound listed as CC1CCC2CC1C2(C)C (centres undefined) has a reported outcome of inactive

The compound listed as CCCCCCCC(=O)OC has a reported outcome of inactive

The compound listed as CSCCC=O has a reported outcome of inactive

The compound listed as C=C(C)C(=O)OCCOCCOCCOC(=O)C(=C)C has a reported outcome of inactive

The compound listed as O=C(O)c1ccccc1C(c1ccc(O)cc1)c1ccc(O)cc1 has a reported outcome of inactive

The compound listed as CC(=O)OCC(=O)[C@@]12N=C(C)O[C@@H]1C[C@H]1[C@@H]3CCC4=CC(=O)C=C[C@]4(C)[C@H]3[C@@H](O)C[C@@]12C has a reported outcome of inactive

Provenance of the data: PubChem BioAssay (Tox21)
